These data points were gathered from PubChem BioAssay.

# Assay Notes: viability of PTEN-null HCT116 cells – cell-based, HCT116 clonal line, CellTiter-Glo, pilot screen (AID 824);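 note: 0% = 20 µM Hyamine control and 100% = vehicle cell control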
# Conditions: HCT116 PTEN-deleted viability, 60 h, at 10 µM
Results filed as inconclusive are left out. Calls of active or inactive are those of the source.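 Rule for the calls: active = viability at or below 27.92% in each of two runs, the all-compound median minus 4 SD; inconclusive = no clear call, values can overlap the other calls; inactive = the rest.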
Lab note: assign the record to one of active, inactive

COc1cccc(-c2nc(CS(=O)(=O)CC(=O)NCc3ccc(Cl)cc3)c(C)o2)c1
inactive
CCN1CCN(C(=O)c2cn(CC)c3ccc(S(=O)(=O)N(C)C)cc3c2=O)CC1
inactive
CCOC(=O)C1CCN(C(c2cccc(OC)c2)c2sc3nc(C)nn3c2O)CC1 (stereo not given)
inactive
CCN(C(=O)c1cc(Cl)ccc1OC)c1ccccc1
inactive
COc1cc(-c2nc(-c3ccncc3)no2)cc(OC)c1OC
inactive

Enquiry: Give the logged outcome of this assay for the following compound: `CCOC(=O)N1CCN(C(=O)COc2ccc(Br)cc2)CC1`
Return: inactive

Enquiry: Lookup `COC(=O)CCC(=O)Nc1ccc(Br)cc1`
Return: inactive

Enquiry: // next record `Cc1cc2ncc(-c3ccc(Cl)cc3)c(N)n2n1`
Return: inactive

Enquiry: Query O=C(NCc1ccc(Cl)cc1)C1CCCN(S(=O)(=O)c2cnc[nH]2)C1 (stereo not given) next
Return: inactive

Enquiry: Queued: COc1ccc(-c2nc(CSCC(=O)N3CCN(c4cccc(C)c4)C(C)C3)c(C)o2)cc1OC (stereo not given)
Return: inactive

Enquiry: # iterate: `Cc1ccc(S(=O)(=O)NCCOC(=O)Nc2sc(=S)n(C)c2C)cc1`
Return: inactive

Enquiry: Similarly, `COc1cccc(-c2nnc(NC(C)=O)o2)c1` ?
Return: inactive

Enquiry: Input `CC(=O)Oc1ccc(C(=O)Nc2nnc(C)s2)cc1`
Return: inactive

Enquiry: Do the same for `COCCNC(=O)CN1CCN(Cc2cccc(Cl)c2)C1=O` please
Return: inactive

Enquiry: Do the same for Cc1ccc(N(C(=O)c2ccncc2)C2C=CS(=O)(=O)C2)cc1 (stereo not given) please
Return: inactive

Enquiry: Can you check CCOc1ccc(N2C(=O)CC(N3CCN(C4CCc5ccccc5C4)CC3)C2=O)cc1 (stereo not given) next?
Return: inactive

Enquiry: Queued: `COc1ccc(N(C)C(=O)CCS(=O)(=O)c2cccc3nonc23)cc1`
Return: inactive

Enquiry: Then what about the compound `CCOc1ccc(-n2c(SCC(N)=O)nc3c([nH]c4ccccc43)c2=O)cc1` ?
Return: inactive

Enquiry: Next entry: `CCN(CC)C(=O)COC(=O)c1ccc(O)cc1`
Return: inactive

* * *

# Assay Notes: HUVEC growth inhibition – cell-based, human, primary screen (AID 575);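 note: 100% = median of untreated cell wells with 0.1% DMSO on each plate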
# Conditions: HUVEC proliferation, CellTiter-Glo luminescence, 72 h; at 10 µM; stronger effect = lower value
Measured viability accompanies every entry in the list below.
Dear colleague, please return just the value in %, with no unit written.

# example entries with known answers
Cc1nnc(SCC(=O)NCc2ccccc2)s1
81.2
CCOc1ccc(N(C(C)C(=O)NC2CCCCCC2)S(C)(=O)=O)cc1 (stereo unspecified)
101
COCCOC(=O)C1=C(C)N=c2s/c(=C\c3cccs3)c(=O)n2C1c1cccs1 (stereo unspecified)
82.4
COc1ccc(C)cc1S(=O)(=O)N1CCN(S(=O)(=O)c2cc(C)ccc2OC)CC1
96.5
Nn1c(Cc2ccccc2F)nnc1SCC(=O)N1CC(=O)Nc2ccccc21
109

Enquiry: Entry under review: CCOC(=O)C(CC)(CCC(=O)O)c1csc(N)n1 (stereo unspecified) . Reported viability?
Return: 101

Enquiry: Now give it for `COc1cccc(-c2nc(CS(=O)(=O)CC(=O)N3CCN(c4ccccn4)CC3)c(C)o2)c1` too.
Return: 81

Enquiry: And CCN(CC)CCCN1C(=O)C(O)=C(C(=O)c2ccco2)C1c1ccc(C)o1 (stereo unspecified) ?
Return: 102

Enquiry: Same again, this time with `Cc1ccc(C)c(N2CCN(C(=O)c3cc4ccccn4n3)CC2)c1`
Return: 90.1

Enquiry: Record: `Cc1nnc(NC(=O)c2ccco2)s1`
Return: 98.6

Enquiry: Next record, please: `CCOc1ccc(-c2nnc(SCC(=O)N3CCN(c4ccccc4)CC3)o2)cc1`
Return: 99.5

* * *

# Assay Notes: MRP1 drug-resistance reversers in H69AR cells – cell-based, doxorubicin co-treatment, pilot screen (AID 601)
# Conditions: H69AR cells, CellTiter-Glo, 72 h; compound alone cytotoxicity; at 10 µM
Decide using viability alone. Strictly below 90%: True. Equal to or above 90%: False.

CC(=O)c1ccc(NC(=O)C2CCN(S(=O)(=O)c3cccc4cccnc34)CC2)cc1
True
COCCCNC(=O)CSc1ccc(Cl)cc1
False
C/C=C/COC(=O)c1[nH]c2c(c1C)C(=O)CC(c1ccc(N(C)C)cc1)C2 (configuration not stated)
True
CC1=C(C(=O)OCc2ccccc2)C(c2ccco2)n2ncnc2N1 (configuration not stated)
False
O=c1oc2ccccc2cc1NCc1ccccc1O
True
CCOC(=O)c1ccc(N2Cc3cc(C)c(C)cc3C2)cc1O
False
C#CCOC(=O)C1C2C=CC(C2)C1C(=O)O (configuration not stated)
False
CCc1nn(CC(=O)NCCCN2CCc3ccccc3C2)c(=O)c2cc3sccc3n12
True
O=C(O)CC(C(=O)Nc1cccc(C(F)(F)F)c1)C1CCCO1 (configuration not stated)
False

Enquiry: Determine whether this compound shows viability lower than 90% (ties excluded): `Cn1nnc2cc(C(=O)N3CCCCCC3)ccc21`
Return: False

* * *

# Assay Notes: Her2 expression decrease, cell viability multiplex – SKBR3 breast tumor cells, AlphaScreen, ATP viability, primary screen (AID 461);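 note: percent of carrier control wells set as 100% viability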
# Conditions: SKBR3 Her2 protein level, 18-24 h, measured here: SKBR3 viability, ATP luminescence, at 10 µM
Measured Quantity: viability (%)
Return type: number; implicit unit %.

Field: example entries. Status: answers known.
O=C(CCN1C(=O)c2ccccc2C1=O)NCCN1CCOCC1
105
CC1Cc2nc(SCC(=O)Nc3ccc4c(c3)OCO4)n(-c3ccc(F)cc3)c(=O)c2S1 (stereo not drawn)
90.5
CCN(CC)C(=O)C1CCCN(c2ncnc3c2cnn3-c2ccc(Cl)cc2)C1 (stereo not drawn)
94.5
CCOC(=O)c1[nH]c(C)c(C(=O)Nc2ccc(Cl)cc2)c1C
88.5
COc1cccc(NC(=O)C2CCCN(S(=O)(=O)c3cccc4cccnc34)C2)c1 (stereo not drawn)
106
CCCCC(NS(=O)(=O)c1ccc(OC)cc1)C(=O)O (stereo not drawn)
110
Cc1cc(C)n2c(SCCN3C(=O)c4ccccc4C3=O)nnc2n1
90.5
O=C(NCCSc1c[nH]c2ccccc12)c1ccc(Br)o1
104
O=C(CS(=O)(=O)c1cn(Cc2ccc(F)cc2)c2ccccc12)N1CCCCC1
92
O=C1c2ccccc2C(Nc2ccc(F)c(Cl)c2)N1Cc1ccco1 (stereo not drawn)
92

Enquiry: Any idea what its viability is? The compound is `O=C(c1cnc2n(c1=O)CCS2)N1CCc2ccccc21`
Return: 99.5

Enquiry: Query `Cc1ccc(S(=O)(=O)NCCSc2nnnn2-c2ccc(C(N)=O)cc2)cc1` next
Return: 116

Enquiry: One more compound: `CCOCCn1c(CN2CCN(CC)CC2)nc2c1c(=O)n(C)c(=O)n2C`
Return: 121

Enquiry: And then `Cn1nnnc1SCC(=O)Nc1ccccc1-c1ccccc1` , what is it?
Return: 100

Enquiry: Thanks! And COc1cc(NC(=O)C2C3C=CC(C3)C2C(=O)O)c(OC)cc1Cl (stereo not drawn) ?
Return: 86

Enquiry: Next compound: `Cc1noc(/C=C/N(C)C)c1S(=O)(=O)N1CCc2ccccc21`
Return: 99

* * *

# Assay Notes: yeast transport mutant growth inhibition pilot in 384-well plates, post-Golgi transport modulator project (AID 636)
# Conditions: absorbance 615 nm, about 18 h, stronger effect = higher value
Measured Quantity: inhibition (%)
Return type: number; implicit unit %.

CCOC(=O)C1=C(C)NC(=O)NC1c1ccc(OCCO)c(OC)c1 (stereo unspecified)
-6.08
Cc1cc(NS(=O)(=O)c2ccc(NC(=O)COc3ccccc3C(C)C)cc2)no1
-5.2
CCCCOC(=O)Nc1nc2ccc(OC)cc2s1
-6.08
CCN1CCN(CCCNC(=O)c2cc3sccc3n2CC)CC1
-0.27
CCC1CCCCN1CCNS(=O)(=O)c1ccc2c(c1)oc(=O)n2C (stereo unspecified)
-1.28

Now look at this entry.
Enquiry: Need inhibition, item `O=C(CCNS(=O)(=O)c1cccc2nsnc12)NCc1cccs1`
Return: -9.45

* * *

# Assay Notes: RAM signaling pathway blockade in yeast – S. cerevisiae, Pdr1DBD-CYC8 efflux-inhibited sensitized strain, primary screen (AID 1298);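 note: 0% = DMSO untreated cells without growth and 100% = 10 µM 1-NA-PP1 full growth; higher means more yeast growth rescued from 5-FOA killing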
# Conditions: S. cerevisiae cbk1-as DSE1-URA3 strain, 5-FOA growth OD615, 2 d; at 50 µM; stronger effect = higher value
Recorded RAM network inhibition values for a group of molecules are listed next.
Response body: numeric value in %, unit text excluded.

Below: 5 molecules and their reported RAM network inhibition.
COc1ccc(N2CCN(CCNC(=O)CCS(=O)(=O)c3cccc4nsnc34)CC2)cc1
5.62
COc1ccc(CCNC(=O)c2cnn3ccccc23)c(OC)c1OC
3.06
Cc1ccc(C)c(NC(=O)C2CCC(C)(C(=O)O)C2(C)C)c1 (stereo unspecified)
0.93
CC(C)Cc1nnc(NS(=O)(=O)c2ccc(Cl)cc2)s1
4.53
N#Cc1nc(COc2ccccc2Cl)oc1N1CCCCCC1
5.67

Enquiry: // query RAM network inhibition value for entry `Cc1ccc(C)c2[nH]c(=O)c(CCNC(=O)c3cc4ccccc4o3)cc12`
Return: 4.18

Enquiry: Do the same for `O=C1C(Cl)=C(N2CCCCCC2)C(=O)N1c1ccccc1` please
Return: 3.09

Enquiry: Another molecule to look at: COC(=O)CCCCC(=O)C1C(=O)CC(C)(C)C(C(=O)OC)C1=O (stereo unspecified)
Return: -0.78

Enquiry: Try this molecule too: `CCCN1CCN(C(=O)c2cn(CC(C)C)c(=O)c3cc(OC)c(OC)cc23)CC1`
Return: 2.08

Enquiry: Now consider `OC1(c2cccc(C(F)(F)F)c2)CCN(c2ccc(-c3ccccc3)nn2)CC1` .
Return: 5.46

Enquiry: Try this molecule next: CC1CCCCN1S(=O)(=O)c1cccc2cccnc12 (stereo unspecified)
Return: 3.59
